Tested on: HepG2
Experiment: GSK_TCMDC: Percent inhibition of human HepG2 cell line. Test compounds present at 10uM.
Type: functional
Kindly state Inhibition for each of the entries shown.
Phrase the answer as number then unit, nothing more needed.

Sample `NC(=O)C1CCN(Cc2cccc(-c3cccc(-c4nc5cc(C(F)(F)F)ccc5[nH]4)c3)c2)CC1.O=C(O)C(F)(F)F` ; Inhibition observed: 16%

Sample CC[C@H](C)CNC(=O)c1cccc(-c2cccc(CNCC3CNCCCO3)c2)n1.O=C(O)C(F)(F)F (some centres undefined) ; Inhibition observed: 15%

Sample `CN(C)S(=O)(=O)c1cc(-c2ccc3nccc(-c4cccc(S(N)(=O)=O)c4)c3c2)cnc1N` ; Inhibition observed: 35%

Sample O=C(NC(CCCN1CCC2(CC1)OCc1ccccc12)c1ccc(Cl)c(Cl)c1)c1cc(C(F)(F)F)cc(C(F)(F)F)c1 (centres undefined) ; Inhibition observed: 55%

Sample `Cc1cccc(-c2cccc3c(NC(=O)N4CCc5cc6nccc(N7CCN8CCC[C@H]8C7)c6cc54)cccc23)n1.Cl` ; Inhibition observed: 14%

Sample `COc1cccc2c(NN=Cc3ccccc3Cl)cc(C)nc12` ; Inhibition observed: 22%

Sample `O=C(Cn1c(SCc2cccc(F)c2F)cc(=O)c2ccccc21)N(CCn1ccnc1)Cc1ccc(-c2ccc(C(F)(F)F)cc2)cc1` ; Inhibition observed: 20%

Sample `Cc1cc(-c2nc3ccc(N4CCN(C)CC4)cc3[nH]2)nn1Cc1cc(Cl)ccc1OCC(C)C.Cl` ; Inhibition observed: 41%

Sample `Cc1cc(C(F)(F)F)cc(-n2ncc(-c3ccc(C(=O)NCCNCc4ccccc4)cc3)c2N)n1.O=C(O)C(F)(F)F` ; Inhibition observed: 98%

Sample `Cc1ccc2[nH]c([N-]C#N)nc2c1.[Na+]` ; Inhibition observed: 7%

Sample `O=C(Nc1ccccc1Cl)c1cc2ccccc2cc1O` ; Inhibition observed: 2%

Sample `CS(=O)(=O)c1ccc2nc(NC(=O)c3csnn3)sc2c1` ; Inhibition observed: 3%

Sample Cl.N#Cc1cccc(-c2cccc(C(=O)NC3CCC(CCN4CCc5ccc(C#N)cc5CC4)CC3)c2)c1 (centres undefined) ; Inhibition observed: 31%

Sample CCCCCCCC/C=C\CCCCCCCC(=O)NCc1ccc(O)c(OC)c1 [OLVANIL] ; Inhibition observed: 0%

Sample CN(C)C(CNC(=O)c1cc(-c2ccncc2)c(-c2ccc(Cl)c(O)c2)o1)c1ccccc1.O=C(O)C(F)(F)F (centres undefined) ; Inhibition observed: 28%

Sample Cc1cc(C)cc(OCC(O)CN(Cc2cc(Cl)cc(Cl)c2)C(=O)Nc2ccc(Cl)cc2)c1 (centres undefined) ; Inhibition observed: 0%

Sample CC(C)(C)C1CC(=O)CC2C(=O)N(c3ccc(Br)cc3)C(=O)C21 (centres undefined) ; Inhibition observed: 0%

Sample `Br.CCCc1cccc(C)c1OCCCON1C(=N)N=C(N)NC1(C)C` ; Inhibition observed: 57%

Sample CCCC(CNCc1cccc(SC(F)(F)F)c1)CNc1cc(=O)c2ccccc2[nH]1 (centres undefined) ; Inhibition observed: 5%

* * *

Kindly state Inhibition for each of the entries shown.
System: HepG2
Assay: GSK_TCMDC: Percent inhibition of human HepG2 cell line. Test compounds present at 10uM.
Assay type: functional
API: value field is a number in %; no unit string.

Sample `Cl.O=C(Nc1ccnc2ccccc12)NC1CCN(CCc2ccccc2)CC1` ; Inhibition observed: 7

Sample `FC(F)(F)c1ccc2[nH]ccc(=NN=CC=Cc3ccccc3)c2c1` ; Inhibition observed: 0

Sample Cl.NC1=NC(c2ccccc2)N(OCc2ccccc2)C(N)=N1 (centres undefined) ; Inhibition observed: 5

Sample `COc1nc(Nc2cccc(C)c2)nc(OC)n1` ; Inhibition observed: 46

Sample CCC(C)NS(=O)(=O)c1ccc2nc(Nc3ccc(C)c(Cl)c3)n([C@H](C)C(C)(C)C)c2c1 (some centres undefined) ; Inhibition observed: 8

Sample CC(C)c1ccc(CN2CCC(CNC(=O)c3cc(-c4ccccc4F)cs3)C2)cc1.O=C(O)C(F)(F)F (centres undefined) ; Inhibition observed: 32

Sample `O=C(NC1CCN(Cc2ccccc2)CC1)c1ccc(-c2nc3cc(Cl)c(F)cc3[nH]2)cc1` ; Inhibition observed: 13

Sample Cc1cc(-c2ccc3c(c2)CCN(CCC2CCC(NC(=O)/C=C/c4cccc(F)c4)CC2)CC3)on1.Cl (centres undefined) ; Inhibition observed: 23

Sample `Nc1nc(N)c2c(ccc3c2ccn3Cc2ccc(-c3ccccc3)cc2)n1` ; Inhibition observed: 100

Sample `CCOC(=O)Cn1ccc2c(NCc3ccccc3)nc(C)nc21` ; Inhibition observed: 64

Sample `COc1cccc(CCNCc2ccc(-c3cccc(CNC4CCCC4)c3)cc2)c1.O=C(O)C(F)(F)F` ; Inhibition observed: 14

Sample `COc1ccc2nccc([C@@H](O)CN3CCC(NCc4cc5ccc(C#N)cc5[nH]4)CC3)c2c1.O=C(O)C(=O)O` ; Inhibition observed: 31

Sample `Nc1nc(N)c2c(ccn2Cc2cc3c(cc2Cl)OCO3)n1` ; Inhibition observed: 67

Sample `C[C@@H](CC1CCCCC1)OC(=O)N[C@H]1CCN(C#N)C1` ; Inhibition observed: 7

Sample `CCOc1cc(C(=O)Nc2cccnc2)ccc1-c1nc2cc(Cl)c(Cl)cc2[nH]1` ; Inhibition observed: 9

Sample COc1ccc(C(=O)CCC(=O)N(Cc2ccc(-c3ccc(CNCCc4ccc(S(C)(=O)=O)cc4)cn3)cc2)C2CC3CCC2C3)cc1F.O=C(O)C(F)(F)F (centres undefined) ; Inhibition observed: 5

Sample `CC(=O)Nc1ccc(OCCN(Cc2ccccc2OC(F)(F)F)c2ccc(C(F)(F)F)c(C#N)c2)c(Cl)c1` ; Inhibition observed: 8

Sample `CCC[C@@H]([C@@H](CC(C)C)C(=O)N[C@@H](CCCNc1nccc(C(F)(F)F)n1)C(=O)Nc1nccs1)N(O)C=O` ; Inhibition observed: 0

Sample `Cc1cccc2nc(-c3ccc(-c4ccc(CN5CCN(CCN6CCOCC6)CC5)cc4)s3)[nH]c12.O=C(O)C(F)(F)F` ; Inhibition observed: 41
